Hey, just so you know, these numbers are from patent US20120220581A1.

# ED50 per record follows
# Tested on: apomorphine-induced stereotypy in rats
# measurement.description: Apomorphine-induced stereotypy in rats (APO)
# Type: in vivo
# experimental.setup: Rattus norvegicus, po; n.d.: found not active at threshold dose 2.5 mg/kg or 10 mg/kg (a); * not soluble, tested orally as a suspension
assay.readout: ED50

# smiles, result
measured = [
    ("COCCn1cc(-c2c(C)nc3c(N4CCOCC4)cc(C(F)(F)F)nn23)cn1", "> 10 mg/kg"),
    ("FC(F)(F)Cn1cc(-c2c(C3CC3)nc3c(N4CCOCC4)ccnn23)cn1", "> 10 mg/kg"),
    ("Cc1nc2c(N3CCOCC3)ccnn2c1-c1ccc(OCC(F)(F)F)nc1", "> 2.5 mg/kg"),
    ("COCCn1cc(-c2c(C(F)(F)F)nc3c(N4CCOCC4)ccnn23)cn1", "> 2.5 mg/kg"),
]
